tested on: THRa:RXRa (NR concentration 90 nM, RXRa partner concentration 90 nM); experiment: PBM binding z-score (relative to random genomic background probes); higher = stronger binding; sequences stand for … in GC…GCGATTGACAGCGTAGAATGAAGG
READOUT_KIND: PBM binding z-score
The reply should be a number, written without any unit.

Exam item: Find PBM binding z-score for `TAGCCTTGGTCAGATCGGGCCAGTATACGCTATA` on THRa:RXRa (NR concentration 90 nM, RXRa partner concentration 90 nM) and write it down.
Marked response: 1.29

Exam item: Find PBM binding z-score for `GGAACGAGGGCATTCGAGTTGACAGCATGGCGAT` on THRa:RXRa (NR concentration 90 nM, RXRa partner concentration 90 nM) and write it down.
Marked response: 3.83

Exam item: Find PBM binding z-score for `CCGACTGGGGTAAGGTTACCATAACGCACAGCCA` on THRa:RXRa (NR concentration 90 nM, RXRa partner concentration 90 nM) and write it down.
Marked response: 2.36

Exam item: Find PBM binding z-score for `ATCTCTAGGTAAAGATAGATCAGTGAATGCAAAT` on THRa:RXRa (NR concentration 90 nM, RXRa partner concentration 90 nM) and write it down.
Marked response: 0.0339

Exam item: Find PBM binding z-score for `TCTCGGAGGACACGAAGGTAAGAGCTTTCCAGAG` on THRa:RXRa (NR concentration 90 nM, RXRa partner concentration 90 nM) and write it down.
Marked response: 1.18

Exam item: Find PBM binding z-score for `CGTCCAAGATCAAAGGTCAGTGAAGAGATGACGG` on THRa:RXRa (NR concentration 90 nM, RXRa partner concentration 90 nM) and write it down.
Marked response: 2.59

Exam item: Find PBM binding z-score for `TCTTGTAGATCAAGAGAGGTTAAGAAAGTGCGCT` on THRa:RXRa (NR concentration 90 nM, RXRa partner concentration 90 nM) and write it down.
Marked response: 2.27
